Where do the numbers come from? From patent US20240182563A1.

# assayTarget: T1, mouse CNTN4-rabbit Fc (mouse; rabbit, UniProt Q69Z26 19-1000, limits assumed)
# T1 construct: not shown: rabbit Fc
# T1 sequence (looked up): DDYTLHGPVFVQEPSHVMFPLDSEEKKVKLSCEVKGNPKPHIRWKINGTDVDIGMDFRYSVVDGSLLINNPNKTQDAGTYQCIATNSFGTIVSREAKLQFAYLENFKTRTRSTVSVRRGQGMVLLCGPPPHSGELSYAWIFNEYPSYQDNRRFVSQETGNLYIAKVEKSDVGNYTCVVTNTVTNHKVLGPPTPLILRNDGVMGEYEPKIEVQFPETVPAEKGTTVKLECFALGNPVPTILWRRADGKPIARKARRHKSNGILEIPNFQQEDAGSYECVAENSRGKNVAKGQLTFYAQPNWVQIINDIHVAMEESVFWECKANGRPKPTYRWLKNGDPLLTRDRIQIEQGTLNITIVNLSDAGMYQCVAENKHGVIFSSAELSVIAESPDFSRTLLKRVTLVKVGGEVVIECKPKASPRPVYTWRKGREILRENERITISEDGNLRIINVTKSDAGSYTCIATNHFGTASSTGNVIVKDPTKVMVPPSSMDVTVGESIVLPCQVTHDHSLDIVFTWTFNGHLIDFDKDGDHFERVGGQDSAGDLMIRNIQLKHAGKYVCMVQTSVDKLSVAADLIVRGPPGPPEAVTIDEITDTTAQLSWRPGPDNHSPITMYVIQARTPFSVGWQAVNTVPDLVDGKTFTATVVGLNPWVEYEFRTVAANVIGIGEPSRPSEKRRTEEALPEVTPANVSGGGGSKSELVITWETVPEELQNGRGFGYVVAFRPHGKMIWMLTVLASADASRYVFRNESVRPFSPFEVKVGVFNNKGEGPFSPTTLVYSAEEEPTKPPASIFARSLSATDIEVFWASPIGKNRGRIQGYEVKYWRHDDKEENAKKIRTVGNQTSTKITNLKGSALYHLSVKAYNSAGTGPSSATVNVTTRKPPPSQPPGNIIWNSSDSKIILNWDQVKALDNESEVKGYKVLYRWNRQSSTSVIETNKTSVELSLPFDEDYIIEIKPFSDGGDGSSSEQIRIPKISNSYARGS
# assayExplanation: ELISA, plate coated with antigen-rabbit Fc, anti-human IgG Fc-HRP
metric: EC50 (nM)
Dear colleague, please return just the value in nM, with no unit written.

Please review the entries below; each comes with its answer.
| binder | EC50, nM |
| --- | --- |
| anti-CNTN4 IgG A13SF20 (antibody, V domains shown, human IgG4 (S228P)) VH: AVTLDESGGGLHTPGGALSLVCKASGFTFSSYGMAWVRQAPGKGLEWVAGITSSGSSAGYGPAVKGRATISRDNGQSTVRLQLNNLRAEDTATYYCAKDGYIYSGADSDSIDAWGHGTEVIVSS VL: ALTQPSSVSANLGGTVEITCSGGSGSYGWYQQKAPGSAPVTLIYNSDKRPSDIPSRFSGSKSGSTGTLTITGVQAEDEAVYFCGGYDSSAIFGAGTTLTVL | 0.01 |
| anti-CNTN4 IgG A13SF21 (antibody, V domains shown, human IgG4 (S228P)) VH: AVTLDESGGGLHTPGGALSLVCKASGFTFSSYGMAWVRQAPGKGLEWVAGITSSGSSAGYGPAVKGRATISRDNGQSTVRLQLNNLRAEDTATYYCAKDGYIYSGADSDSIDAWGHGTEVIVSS VL: ALTQPSSVSANLGGTVEITCSGSSGSYGWYQQKAPGSAPVTVIYNNNNRPSGIPSRFSGALSGSTATLTITGVQAEDEAVYFCGGYDSSTYVGIFGAGTTLTVL | 0.01 |

Pending binder:
Task: Return reported EC50; argument: anti-CNTN4 IgG A13SF8 (antibody, V domains shown, human IgG4 (S228P)) VH: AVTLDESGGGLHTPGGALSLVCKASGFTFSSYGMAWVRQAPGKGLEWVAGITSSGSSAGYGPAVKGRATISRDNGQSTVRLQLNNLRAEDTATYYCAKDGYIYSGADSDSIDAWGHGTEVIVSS VL: ALTQPSSVSANPGGTVKITCSGSGNYGWYQQKSPGSALVTVIYYNDKRPSDIPSRFSGSTSGSTGTLTITGVQVEDEAVYYCGGYDGYSFASIFGAGTTLTVL
Result: 0.01
